assay: Bidirectional transport across the Caco-2 cell monolayer (LC/MS/MS); conditions: human, Caco-2
quantity.kind: Papp A→B at 60 min

Sample CC(C)NCC(O)COc1cccc2ccccc12 (stereo not shown) [propranolol, reference compound] — what was its Papp A→B at 60 min? 37.6 ×10⁻⁶ cm/s

---

test: Leakage marker sodium fluorescein transport, AP to BL, Caco-2 monolayer integrity; assay type: in vitro ADME; conditions: human, 90 min
quantity.kind: Papp A→B at 90 min, 1 mM (×10⁻⁶ cm/s)
Give your result in ×10⁻⁶ cm/s as a bare value.

Requested field: Papp A→B at 90 min, 1 mM. Item: O=C1OC2(c3ccc(O)cc3Oc3cc(O)ccc32)c2ccccc21 [sodium fluorescein] 0.765

Source: paper PMC4607679
